The reported numbers originate from ChEMBL document CHEMBL3988442.

target: Tyrosyl-tRNA synthetase, putative (Trypanosoma cruzi (strain CL Brener)) (UniProt Q4DSP6); assay: Trypanosoma cruzi tyrosyl tRNA synthetase (TcYRS) SOP; type: functional; design: scale not given: direction of the effect not stated beside the values; details: 30 µM
Sequence (Q4DSP6 as listed by the source): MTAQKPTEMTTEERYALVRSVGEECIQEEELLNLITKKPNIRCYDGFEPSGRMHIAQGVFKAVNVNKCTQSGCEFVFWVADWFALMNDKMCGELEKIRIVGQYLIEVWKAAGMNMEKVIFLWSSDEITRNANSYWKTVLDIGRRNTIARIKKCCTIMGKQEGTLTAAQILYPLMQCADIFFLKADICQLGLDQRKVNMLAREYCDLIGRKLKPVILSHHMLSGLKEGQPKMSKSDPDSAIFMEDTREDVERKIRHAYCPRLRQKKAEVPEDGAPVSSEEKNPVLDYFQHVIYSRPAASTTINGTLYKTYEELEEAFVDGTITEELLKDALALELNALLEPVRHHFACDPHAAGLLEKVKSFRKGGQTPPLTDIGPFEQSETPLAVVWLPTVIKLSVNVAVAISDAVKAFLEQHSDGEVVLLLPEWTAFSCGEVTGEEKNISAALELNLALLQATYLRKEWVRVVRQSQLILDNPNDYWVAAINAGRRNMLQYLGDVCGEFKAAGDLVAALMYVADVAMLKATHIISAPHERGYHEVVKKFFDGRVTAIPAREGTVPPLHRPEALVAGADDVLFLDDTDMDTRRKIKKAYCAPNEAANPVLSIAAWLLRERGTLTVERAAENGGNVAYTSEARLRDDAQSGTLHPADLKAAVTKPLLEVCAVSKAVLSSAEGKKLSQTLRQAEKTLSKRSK
Give Percent Effect for every item shown.
Numbers only, in %.

Below is a list of compounds. For each, state its recorded Percent Effect.
1. CCN1CCN(Cc2ccnc(-c3cccnc3)n2)CC1
2. Cc1nn(C)c(C)c1C1CCCN1Cc1nc(C2CC2)no1 (stereo unspecified)

1. 16.9
2. 18.3

Need Percent Effect for each of these compounds.
1. CC(C)(C)c1n[nH]c(C2CN(C(=O)CCC3CC3)CCO2)n1 (stereo unspecified)
2. COC(=O)C1CCN(C(=O)CN2CCN(c3cccc(C)c3)CC2)CC1
3. CNC(=O)[C@H]1C[C@@H]2CN(S(=O)(=O)c3ccccc3)C[C@@H]2N1C
4. Cc1cnn(CC2CN(CCS(=O)(=O)c3ccccc3)CCO2)c1 (stereo unspecified)

[13.2, 16.1, -1.24, 1.24]

* * *

Would you kindly list Percent Effect for each of these compounds?
biological target: Ubiquitin-activating enzyme e1, putative (Leishmania donovani (strain BPK282A1)) (UniProt E9BSI1); test: Leishmania donovani Ubiquitin Activating Enzyme (LdE1); assay type: functional; parameters: scale not given: direction of the effect not stated beside the values; settings: 30 µM
Sequence (E9BSI1 as listed by the source): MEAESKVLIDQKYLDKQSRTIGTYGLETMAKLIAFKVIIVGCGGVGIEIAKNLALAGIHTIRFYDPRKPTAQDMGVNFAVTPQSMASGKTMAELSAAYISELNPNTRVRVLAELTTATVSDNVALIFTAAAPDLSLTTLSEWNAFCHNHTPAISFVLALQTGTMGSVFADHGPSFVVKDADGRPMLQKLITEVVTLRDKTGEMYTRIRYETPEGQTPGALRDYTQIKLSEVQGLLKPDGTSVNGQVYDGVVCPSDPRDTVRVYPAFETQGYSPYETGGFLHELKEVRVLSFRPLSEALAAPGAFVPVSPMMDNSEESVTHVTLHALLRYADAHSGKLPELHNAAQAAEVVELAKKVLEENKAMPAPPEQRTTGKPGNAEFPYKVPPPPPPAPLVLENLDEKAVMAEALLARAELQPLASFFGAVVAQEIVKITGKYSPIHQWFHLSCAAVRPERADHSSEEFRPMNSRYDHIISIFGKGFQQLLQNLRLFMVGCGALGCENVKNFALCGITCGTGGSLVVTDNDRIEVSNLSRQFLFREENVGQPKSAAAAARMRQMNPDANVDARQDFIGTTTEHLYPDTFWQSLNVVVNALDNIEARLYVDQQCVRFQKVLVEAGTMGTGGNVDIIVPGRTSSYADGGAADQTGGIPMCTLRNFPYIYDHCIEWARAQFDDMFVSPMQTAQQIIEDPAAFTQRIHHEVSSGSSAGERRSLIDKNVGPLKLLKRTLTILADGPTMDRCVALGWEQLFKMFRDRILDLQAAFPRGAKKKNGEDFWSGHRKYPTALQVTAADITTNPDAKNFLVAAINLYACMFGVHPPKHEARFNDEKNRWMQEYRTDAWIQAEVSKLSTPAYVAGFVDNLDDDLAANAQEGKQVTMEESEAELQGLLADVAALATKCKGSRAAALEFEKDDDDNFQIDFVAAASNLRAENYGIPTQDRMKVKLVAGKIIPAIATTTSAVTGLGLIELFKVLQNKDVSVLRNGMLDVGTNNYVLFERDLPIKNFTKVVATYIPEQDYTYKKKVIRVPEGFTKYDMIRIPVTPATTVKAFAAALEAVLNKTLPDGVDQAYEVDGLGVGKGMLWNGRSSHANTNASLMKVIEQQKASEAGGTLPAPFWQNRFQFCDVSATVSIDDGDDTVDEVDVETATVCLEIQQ
Measured potencies and affinities stand elsewhere.
Answers are plain numbers, in %.

# annotated cases, reported Percent Effect shown
[[record]]
compound = "CC(=O)Nc1cc(C(=O)N2CCOCC2c2ccc(C)o2)ccc1F (centres undefined)"
reading = 2.67

[[record]]
compound = "Cc1nn(C)cc1CCC(=O)N1CCCC(n2cncn2)C1 (centres undefined)"
reading = 2.67

[[record]]
compound = "COc1ccc(CNC(=O)C2(C#N)CCCC2)cc1"
reading = 12.5

[[record]]
compound = "CCOc1ccccc1-c1noc(CN2CCCC(O)C2)n1 (centres undefined)"
reading = 0

[[record]]
compound = "CS(=O)(=O)N1CCN(CC(O)COc2ccc(F)cc2)CC1 (centres undefined)"
reading = 10.4

[[record]]
compound = "C[C@]1(O)CCN(Cc2cncs2)C[C@@H]1Oc1cccc(F)c1"
reading = 4

[[record]]
compound = "c1nc2n(n1)CC(NCc1csc(-c3ccsc3)n1)CC2 (centres undefined)"
reading = 7.69

[[record]]
compound = "c1cn2c(n1)CN(CC1CC1)CC(CN1CCOCC1)C2 (centres undefined)"
reading = 9.09


Report Percent Effect for every entry below.
1. O=C(CCc1ccccc1F)NS(=O)(=O)c1ccc2c(c1)OCCCO2
2. CS(=O)(=O)c1ccc(NC(=O)NCc2ccc3c(c2)CCC3)cn1

[11.4, 0]

* * *

tested on: Trypanosoma cruzi; assay: Trypanosoma cruzi phosphomannomutase and mannose-1-phosphate guanylyltransferase assay; type: functional; parameters: scale not given: direction of the effect not stated beside the values; details: 10 µM
Give Percent Effect for every item shown.
One number for each entry, in %.

[[record]]
compound = "CCc1cc(C(=O)N2CCC(Nc3ccc(C)nn3)CC2)sc1C"
system_under_test = "Trypanosoma cruzi"
quantity_unit = "%"
reading = 3.61

[[record]]
compound = "Cc1ccc2c(c1)c(CNC(=O)C1CCN(C(C)C)CC1)nn2C"
system_under_test = "Trypanosoma cruzi"
quantity_unit = "%"
reading = -0.579

[[record]]
compound = "CN(Cc1cnn(C)c1)C(=O)NC1CCC(O)CC1 (stereo not drawn)"
system_under_test = "Trypanosoma cruzi"
quantity_unit = "%"
reading = 2.82

[[record]]
compound = "CC(C)c1ccc(-c2nnn(CCNS(C)(=O)=O)n2)cc1"
system_under_test = "Trypanosoma cruzi"
quantity_unit = "%"
reading = 4.96

[[record]]
compound = "Cc1ncc(CNC(=O)CCc2cccc(F)c2)c(C2CCCN2C)n1 (stereo not drawn)"
system_under_test = "Trypanosoma cruzi"
quantity_unit = "%"
reading = 0.988

[[record]]
compound = "O=c1c(-c2ccnc(NC3CCOCC3)n2)cnc2sc(Cl)cn12"
system_under_test = "Trypanosoma cruzi"
quantity_unit = "%"
reading = -8.63

[[record]]
compound = "CC(C)c1noc(CN(Cc2cccs2)C2CC2)n1"
system_under_test = "Trypanosoma cruzi"
quantity_unit = "%"
reading = -5.61

[[record]]
compound = "CC(C)(C)C(=O)NCCc1ccn(-c2ccccc2)n1"
system_under_test = "Trypanosoma cruzi"
quantity_unit = "%"
reading = -0.923

[[record]]
compound = "CCN(C)S(=O)(=O)N(CC)Cc1ccc2c(c1)OCO2"
system_under_test = "Trypanosoma cruzi"
quantity_unit = "%"
reading = -4.49

[[record]]
compound = "CC(C)c1nc2n(n1)CC(NCc1ncc(-c3ccccc3)o1)CC2 (stereo not drawn)"
system_under_test = "Trypanosoma cruzi"
quantity_unit = "%"
reading = 4.8


Report Percent Effect for every entry below.
1. CCN(Cc1cccc2c1OCO2)C(=O)C(C)c1cccnc1 (stereo not drawn)
2. Cc1ncsc1C(=O)NC1CCN(CCC(N)=O)CC1
3. COC(=O)c1ccc(N2CCN(CCC(=O)NC(N)=O)C(C)C2)cc1 (stereo not drawn)
4. COCCN1CCN(Cc2noc(C3CC3)n2)CC1C (stereo not drawn)
5. Cc1cnc(C(=O)N2C[C@@H]3CN(CC4CCCC4)CCO[C@@H]3C2)cn1
6. O=c1cc2c(nn1CN1CCOCC1)CCC2

5.78
-2.62
-5.51
-3.87
0.682
-0.786

// input: 5 compounds below; output: Percent Effect for each
1. CC(C)n1cc(C(=O)N2Cc3ccccc3OC3(CCOCC3)C2)cn1
2. Cc1cc(NC(=O)CN2CCCC2c2noc(C(C)C)n2)n(C)n1 (stereo not drawn)
3. CC(=O)c1cccc(OCCCC(=O)NCC2CCCN2C)c1 (stereo not drawn)
4. Cc1noc(C)c1CN1CCN(Cc2ccncc2)c2ncccc2C1
5. CC(C)c1nnc2n1CCN(C(=O)c1ccnc(N(C)C)c1)C2

1. -8.1
2. 0
3. 3.57
4. -6.5
5. 0

Each of the following entries comes with a recorded value; kindly state Percent Effect for each.
1. CCCNC(=O)NCc1cccnc1OC
2. Cc1ccccc1CN1CCCN(C2CCOC2=O)CC1 (stereo not drawn)
3. Nc1nc(C2CCN(C(=O)c3cncs3)CC2)cs1
4. CS(=O)(=O)NCc1ncn2c1CN(C(=O)CC1CCCC1)CCC2

[-0.803, -3.3, 1.38, -4.77]

Record Percent Effect for all entries; do not skip any.
1. COc1ccc(-n2ncc(C(=O)NCC3COC(C)(C)O3)c2N)cc1 (stereo not drawn)
2. Cc1ccnc(OCC(=O)N2CCC(C(N)=O)CC2)n1
3. CN(C)Cc1cnc2n1CCN(Cc1ccsc1)CC2
4. c1ccc(CN2CCc3ncnc(-c4ccsc4)c3CC2)nc1
5. NC(=O)CSCC(=O)N1CCc2cc(Cl)cc(Cl)c2C1
6. Cc1cc(C2CCCN2C(=O)c2cc3c(s2)CCC3)on1 (stereo not drawn)
7. COc1c(CNCc2cccc(CN(C)C)c2)c(C)nn1C
8. COc1ccccc1CC1CCCN(CC(=O)N2CCOCC2)C1 (stereo not drawn)

1. -0.592
2. 1.37
3. 2.98
4. -2.83
5. 6.98
6. 6.58
7. -2.17
8. 1.08

Hi! Can you tell me Percent Effect for each of these compounds?
1. COc1ccc(C2CC(=O)Oc3cc(C)[nH]c(=O)c32)cc1 (stereo not drawn)
2. CC(NC(=O)N1CCCN(Cc2cccs2)CC1)c1cccnc1 (stereo not drawn)
3. CCN(CC)C(CNC(=O)c1ccc(S(C)(=O)=O)cc1)c1ccco1 (stereo not drawn)
4. COc1ccc(CCC(=O)N2CCCC2Cn2cc(C)cn2)cc1F (stereo not drawn)
5. CN(Cc1cccc(F)c1)C(=O)CN1CCOC(Cn2cccn2)C1 (stereo not drawn)
6. Cc1ccc(F)cc1C(=O)N1C[C@@H](CN2CCOCC2)[C@@H](CO)C1
7. CCOc1ccnc(N2CCN(C(=O)c3cc(Cl)c[nH]3)CC2)n1

1. 4.13
2. 5.64
3. 3.91
4. 1.27
5. 0.933
6. 2.23
7. 1.98

Hi, could you look up Percent Effect for each item in my list?
1. Cc1ccc([C@@H]2CN(C(=O)c3cccnn3)C[C@H]2NC(=O)C2CC2)cc1
2. Cc1ccc(CN2CCCC3(COCCN(Cc4c[nH]nn4)C3)C2)o1 (stereo not drawn)
3. CC(=O)NC1CCCN(C(=O)NCc2cccnc2N(C)C)C1 (stereo not drawn)
4. O=C(NCCOc1ccc2c(c1)CCC2)N1CCS(=O)(=O)CC1
5. O=C(c1ccoc1)N1CCCn2cnc(COCC3CC3)c2C1

4.17
0.965
0.402
-1.78
1.07

# per-item lookup of Percent Effect; items listed below
1. CC(C(=O)NCCN1CCCCCC1)n1cncn1 (stereo not drawn)
2. Cc1nc(C2CCCN(C(=O)CO)C2)cc(N2CCOCC2)n1 (stereo not drawn)
3. Cc1nc([C@@H]2C[C@@H]3CCN(C(=O)c4ccnnc4)C[C@H]3O2)sc1C

4.76
9.02
5.42
